System: MDA-MB-231 breast
Run Description: NCI-60 one-dose screen, 48 h (100 = growth as untreated, 0 = no growth, -100 = all killed)
Setup Conditions: 10 µM unless noted
About 83,000 compounds went through this panel and 20% of them were active in at least one assay; those are over-represented in the sample as a whole.
Rule: growth below 80% gives met, anything at or above gives not met.

Compound: COc1cc(OC)c(C(=O)/C=C/c2cccc(OC(C)=O)c2)cc1CC=C(C)C
Label Value: met

Compound: CCN(CC)c1cc(C)c(Cc2c(OC)ccc3ccccc23)cc1C
Label Value: not met

Compound: C=CCOC(=O)C1=C(C)NC2=C(C(=O)CC(C)(C)C2)C1c1ccc(OC)cc1 (stereo not given)
Label Value: not met

Compound: COc1ccc([C@H]2c3[nH]c4ccccc4c3C[C@H]3C(=O)N(CCCCCCC(=O)NO)CC(=O)N23)cc1
Label Value: met

Compound: CC(CN1CCN(CC(C)Nc2ccnc3cc(Cl)ccc23)CC1)Nc1ccnc2cc(Cl)ccc12 (stereo not given)
Label Value: met

(Q) Could you please tell me whether growth recorded for CCOC(=O)C(CCCCC(NC(C)=O)(C(=O)OCC)C(=O)OCC)(NC(C)=O)C(=O)OCC is less than 80%?
(A) not met

(Q) For O=C(N/N=C\c1cc(Br)ccc1O)c1ccncc1 , is the recorded growth below the cut-off of 80%?
(A) met

(Q) Input CCSc1cnnc2ccccc12 ; condition: growth strictly below 80%. Does it hold?
(A) not met

(Q) In plain terms, does O=C(CC(=O)C(F)(F)C(F)(F)C(F)(F)F)c1cc2ccccc2o1 come in under 80% for growth?
(A) not met

* * *

Quick reference for growth among some molecules
System: SK-MEL-28 melanoma
Run Description: NCI-60 one-dose screen, 48 h (100 = growth as untreated, 0 = no growth, -100 = all killed)
Setup Conditions: 10 µM unless noted
This is part of a sample that, as a whole, favours compounds with a hit. Of some 83,000 tested, about 20% had one in any assay.
Your answer should be a plain number; it is taken to be in %.

Molecule: Nc1c(C(=O)Nc2ccccc2)sc2nc3c(cc12)C(=O)CCC3
growth [%]: 58.7

(Q) Indicate its recorded growth; the molecule in question is COc1ccc(Cl)cc1Nc1nc(C(F)(F)F)ccc1C(=O)NN
(A) 13.4

(Q) Report growth, nothing else, for this molecule: CCN(CC)CCNC(=O)C(F)(F)C(F)(F)C(F)(F)F
(A) 115

(Q) Look up and report measured growth for this entry: C=CCOC(=O)C1=C(C)NC2=C(C(=O)CC(C)(C)C2)C1c1ccc(OC)cc1 (stereo unspecified)
(A) 104

(Q) State its growth for this molecule: O=C(N/N=C\c1cc(Br)ccc1O)c1ccncc1
(A) 45.8

(Q) Let me know recorded growth for COc1ccc(C2=NNC(c3ccc(Oc4nc5c(c(=O)n(C)c(=O)n5C)n4C)c(OC)c3)C2)cc1 (stereo unspecified) , thanks.
(A) 97.1

(Q) Identify measured growth associated with NNc1ccc(S(N)(=O)=O)cc1
(A) 108

(Q) Please give measured growth of the following entry: COc1ccc(NC(=O)c2sc3c(=O)[nH]c(C(F)(F)F)nc3c2C)cc1
(A) 109

* * *

Catalogue of growth values
System: MALME-3M melanoma
Run Description: NCI-60 one-dose screen, 48 h (100 = growth as untreated, 0 = no growth, -100 = all killed)
Setup Conditions: 10 µM unless noted
Compounds without any hit were thinned out: in the full panel of roughly 83,000, 20% have a hit.
Give a bare numeral; the unit % is implied.

Worked set:
Compound: O=C(Cc1ccc([N+](=O)[O-])cc1)Oc1ccccc1
Measurement Units: %
growth: 146
--
Compound: CCCCCCCOc1cccc(/C=C2\N=C3SCCCN3C2=O)c1
Measurement Units: %
growth: 139
--
Compound: O=C1Nc2ccc(Br)cc2/C1=N/c1nc(-c2ccccc2)cs1
Measurement Units: %
growth: 101
--
Compound: NC(N)=NC1CCCCC1
Measurement Units: %
growth: 101

(Q) Please respond with reported growth (system MALME-3M melanoma) for CN(C)CC(=O)c1ccc2cc(Br)c3ccccc3c2c1 .
(A) 106

(Q) Look up MALME-3M melanoma data: growth of O=C1/C(=C/c2cc(F)cc(F)c2)Cc2cc(F)cc(F)c21 , then report it.
(A) 86

(Q) Lab note: MALME-3M melanoma assay, enter growth for CCCCCCCCN=C(NCCCCCCCC)SCc1cccc2ccccc12 here
(A) -44.3

(Q) GET growth | system: MALME-3M melanoma | item: COc1cc(CN2CCC(N3CCCC3=O)c3ccccc32)cc(OC)c1OC (configuration not stated)
(A) 71.9

(Q) // fetch growth for COc1ccc(-c2nc(SCCC(C)C)nc(Nc3ccc(C(=O)O)cc3)c2C#N)cc1 ; system: MALME-3M melanoma
(A) -52

(Q) Please indicate recorded growth of O=C(O/C(=C/c1ccccc1)C(F)(F)F)c1ccccc1 measured with MALME-3M melanoma.
(A) 118

(Q) State the measured growth (MALME-3M melanoma) of CCCCSc1ncnc2c1ncn2C1CCCCO1 (configuration not stated)
(A) 115

(Q) Fill: growth (MALME-3M melanoma) for this compound Cc1c(C(=O)Nc2ccccc2F)sc2c(=O)[nH]cnc12
(A) 88.3

* * *

Tested on: KM12 colon
Run Description: NCI-60 one-dose screen, 48 h (100 = growth as untreated, 0 = no growth, -100 = all killed)
Setup Conditions: 10 µM unless noted
This is part of a sample that, as a whole, favours compounds with a hit. Of some 83,000 tested, about 20% had one in any assay. Activity calls are given as the source filed them. Rule for the calls: active = growth percent below 10; inactive = the rest.
Measured Property: growth

(Q) Read the entry C[N+](C)(C)CC(=O)N/N=C\c1ccco1 and write its reported growth.
(A) 96.8% (inactive)

(Q) Return reported growth. Input compound: NC(=O)c1ccc[n+](Cc2ccccc2)c1
(A) 102% (inactive)

(Q) Supply recorded growth for NC(=S)N1N=C(c2ccc(Cl)cc2)CC1c1cc2ccccc2[nH]c1=O (stereo unspecified) here.
(A) 114% (inactive)

(Q) Provide growth value for the following compound: O=[N+]([O-])c1ccc(N/N=C\c2ccc(O)cc2O)nc1
(A) 29.2% (inactive)

(Q) Please indicate growth recorded for COc1ccc(/C=C/c2nc(NCCCN(C)C)c3ccccc3n2)cc1
(A) 32.1% (inactive)

(Q) Name the recorded growth of the item CCOC(=O)c1ccc(NC(=O)CSC(N)=O)cc1 in your answer.
(A) 111% (inactive)

* * *

System: IGROV1 ovarian
Run Description: NCI-60 one-dose screen, 48 h
Setup Conditions: 10 µM unless noted
About 83,000 compounds went through this panel and 20% of them were active in at least one assay; those are over-represented in the sample as a whole. Active and inactive are the calls of the source. Rule for the calls: active = growth percent below 10; inactive = the rest.
Lab note: assign the record to one of class 1 (active), class 0 (inactive)

Examples with answers:
Compound: O=C1Nc2ccc(Br)cc2/C1=N/c1nc(-c2ccccc2)cs1
System Name: IGROV1 ovarian
Label Value: class 0
--
Compound: Fc1cc(-c2cnc3nonc3n2)c(Cl)cc1Cl
System Name: IGROV1 ovarian
Label Value: class 0
--
Compound: CCn1c(Cc2ccccc2Nc2c(Cl)cccc2Cl)nnc1SCC(=O)Nc1cccc(OC)c1
System Name: IGROV1 ovarian
Label Value: class 0
--
Compound: CCN(CC)CCCCCCCCNc1c2ccc(Cl)cc2nc2ccc(OC)cc12
System Name: IGROV1 ovarian
Label Value: class 1

(Q) # outcome recorded in this test, key = O=C(CCl)Nc1cc(O)c2c(c1)C(=O)c1cccc(O)c1C2=O
(A) class 1

(Q) Outcome? COc1cc(Nc2ncccc2/C=C/C(=O)c2cc(OC)c(OC)c(OC)c2)cc(OC)c1OC
(A) class 0

(Q) Entry CS(=O)(=O)c1ccc(C(=O)N2N=C(c3ccccc3)CC2c2ccc3c(c2)OCO3)cc1 (stereo unspecified) : call = ?
(A) class 0

(Q) Given O=C(O)c1cc2cc(OCc3ccccc3)ccc2[nH]1 , state the outcome it received in this test.
(A) class 0

* * *

System: NCI-H322M lung
Run Description: NCI-60 one-dose screen, 48 h (100 = growth as untreated, 0 = no growth, -100 = all killed)
Setup Conditions: 10 µM unless noted
About 83,000 compounds went through this panel and 20% of them were active in at least one assay; those are over-represented in the sample as a whole.
// classify: if (growth < 90%) TRUE else FALSE

Worked cases, answers included:
Compound: CCCCCCCC/C=C/CCCCCCCC1=NC(C)(C)CN1c1ccccc1
System Name: NCI-H322M lung
Label Value: FALSE

Compound: COc1nccc2c(Sc3ccccc3)nc(N)nc12
System Name: NCI-H322M lung
Label Value: FALSE

Compound: O=C1OCC2=C1C(c1ccccc1)c1cc3c(cc1N2CCO)CCC3 (stereo unspecified)
System Name: NCI-H322M lung
Label Value: TRUE

Compound: COC(=O)[C@@H](Cc1c[nH]c2ccccc12)NC(=O)/C=C/c1ccccc1
System Name: NCI-H322M lung
Label Value: TRUE

As a next step, examine the compound that follows.
(Q) Please indicate whether the reported growth of CCN(CCC#N)c1ccccc1 is strictly below 90%.
(A) FALSE
